tested on: 323965-272-R-J2-PDC complex spheroid viability; test: Anticancer human tumor 323965-272-R-J2-PDC patient-derived pancreatic carcinoma cell line growth inhibition [CLK]; settings: second compound 3.16 µM; first compound 10 µM; hits give low values;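 also: spheroids exposed to agents for seven days before readout; percent of DMSO vehicle control wells so 100% = untreated growth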
Doc: threshold 20% (exclusive). Items with viability, T/C beneath it return yes (1); others return no (0).

* CC(CO)NC(=O)c1cc(-c2ccc(Cl)cc2)nn(-c2cnn(C)c2)c1=O (stereo not given) + CN1CCN(c2cc(C(=O)Nc3cc4cc(-c5cnn(C)c5)ccc4cn3)ccn2)CC1 | yes (1)
* COC1C=CCC(C)C(C)S(=O)(=O)NC(=O)c2ccc3c(c2)N(CC2CCC21)CC1(CCCc2cc(Cl)ccc21)CO3 (stereo not given) + CNC(=O)c1ccc(Nc2nc(OC3CCCC3)c3c(-c4ccc5nc(C)oc5c4)c[nH]c3n2)c(OC)c1 | no (0)
* COc1ccc([C@@H](O)c2cc(-c3ncnc4cc(N5CCOCC5)ccc34)c(F)cc2Cl)nn1 + CN1CCN(c2cc(C(=O)Nc3cc4cc(-c5cnn(C)c5)ccc4cn3)ccn2)CC1 | yes (1)
* C=CC(=O)N1CCN(c2nc(=O)n(-c3c(C)ccnc3C(C)C)c3nc(-c4c(O)cccc4F)c(F)cc23)C(C)C1 (stereo not given) + CNC(=O)c1ccc(Nc2nc(OC3CCCC3)c3c(-c4ccc5nc(C)oc5c4)c[nH]c3n2)c(OC)c1 | no (0)
* CC(Nc1ccc2c(c1)OCCn1cc(N3C(=O)OCC3C(F)F)nc1-2)C(N)=O (stereo not given) + CNC(=O)c1ccc(Nc2nc(OC3CCCC3)c3c(-c4ccc5nc(C)oc5c4)c[nH]c3n2)c(OC)c1 | no (0)
